Molecular target: Tyrosine-protein kinase receptor UFO (Homo sapiens) (UniProt P30530)
Sequence (P30530 whole entry): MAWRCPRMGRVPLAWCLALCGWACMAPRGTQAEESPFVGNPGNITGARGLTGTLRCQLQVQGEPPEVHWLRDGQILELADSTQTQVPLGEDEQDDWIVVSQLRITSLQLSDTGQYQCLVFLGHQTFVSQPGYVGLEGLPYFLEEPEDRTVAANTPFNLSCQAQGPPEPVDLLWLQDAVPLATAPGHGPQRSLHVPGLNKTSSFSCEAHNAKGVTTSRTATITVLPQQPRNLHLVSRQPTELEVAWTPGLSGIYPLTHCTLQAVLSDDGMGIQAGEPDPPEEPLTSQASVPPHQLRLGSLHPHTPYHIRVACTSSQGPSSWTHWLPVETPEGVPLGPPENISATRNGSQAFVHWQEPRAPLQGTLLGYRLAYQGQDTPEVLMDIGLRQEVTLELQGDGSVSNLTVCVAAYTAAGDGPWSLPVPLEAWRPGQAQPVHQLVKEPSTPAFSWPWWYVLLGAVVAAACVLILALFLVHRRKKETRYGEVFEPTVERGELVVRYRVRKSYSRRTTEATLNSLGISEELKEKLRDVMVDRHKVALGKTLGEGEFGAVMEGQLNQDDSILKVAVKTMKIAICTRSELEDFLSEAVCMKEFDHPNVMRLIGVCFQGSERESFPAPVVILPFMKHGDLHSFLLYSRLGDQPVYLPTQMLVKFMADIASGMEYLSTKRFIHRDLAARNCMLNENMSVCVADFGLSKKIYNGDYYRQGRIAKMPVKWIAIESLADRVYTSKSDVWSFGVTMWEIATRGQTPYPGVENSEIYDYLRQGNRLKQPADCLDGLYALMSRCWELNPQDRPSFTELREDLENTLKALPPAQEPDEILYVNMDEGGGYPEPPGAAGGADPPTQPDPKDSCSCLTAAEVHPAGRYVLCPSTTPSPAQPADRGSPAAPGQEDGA
Settings: at 1 µM
Description: GSK_PKIS: AXL mean inhibition at 1 uM [Nanosyn]
Each record here notes measured inhibition.
Measured quantity: inhibition (%)

Cpd smiles | Measured
FC(F)(F)c1cccc(-c2nn3ncccc3c2-c2ccnc(Nc3ccc4c(c3)OCCO4)n2)c1 | -1.04
CCn1c(-c2nonc2N)nc2c(C#CC(C)(C)O)ncc(OC3CCNCC3)c21 | -4.23
COc1ccc(-c2oc3ncnc(N)c3c2-c2ccc(NC(=O)Nc3cc(C(F)(F)F)ccc3F)cc2)cc1 | 82.1
Fc1ccc(-c2cc(-c3c[nH]nc3-c3ccccn3)ccn2)cc1 | -8.99
COC(=O)Nc1nc2ccc(S(=O)(=O)c3ccc(NC(=O)Nc4cc(C(F)(F)F)ccc4F)cc3)cc2[nH]1 | -1.71
CCOc1ccc2c(-c3ccnc(Nc4cccc(C(F)(F)F)c4)n3)cnn2n1 | -0.78
COc1cc2c(cc1Nc1nc(Nc3ccsc3C(N)=O)c3cc[nH]c3n1)N(C(=O)CN(C)C)CCC2(C)C | 85.5
c1cc(-c2cnn3nc(N4CCOCC4)ccc23)nc(NC2CC2)n1 | -5.65
N#Cc1c(NC(=O)CN2CCOCC2)sc2c1CCCC2 | -0.41
Cc1ccc(O)cc1Nc1ccnc2cc(-c3ccccn3)ccc12 | -6.05
